// provenance: the supplement of paper PMC10307832

- System: NCI-H358
- METHOD_SUMMARY: relative viability (nuclei count vs DMSO), 5 days (fraction); higher = more cells survive
- CONDITION_NOTES: first compound 0.1265 µM
ATTRIBUTE_MEASURED: relative viability
Reply briefly: the number, and no unit.

COMPOUND | relative viability
Cc1sc2c(c1C)C(c1ccc(Cl)cc1)=N[C@@H](CC(=O)OC(C)(C)C)c1nnc(C)n1-2 [JQ1] + N=C(N)NC(=N)NCCc1ccccc1 [Phenformin] (partner 250 µM) | 0.335

Enquiry: Item Cc1sc2c(c1C)C(c1ccc(Cl)cc1)=N[C@@H](CC(=O)OC(C)(C)C)c1nnc(C)n1-2 [JQ1] + COc1cc2c(Oc3ccc(NC(=O)C4(C(=O)Nc5ccc(F)cc5)CC4)cc3F)ccnc2cc1OCCCN1CCOCC1 [Foretinib] (partner 0.25 µM) with NCI-H358 - relative viability?
Return: 0.83
